Listed below: viability, T/C values for each entry.
- Test system: K12877-001-R-J1-PDC complex spheroid viability
- method-description: Anticancer human tumor K12877-001-R-J1-PDC patient-derived lung adenocarcinoma cell line growth inhibition [RAS]
- applied-conditions: second compound 0.000949 µM; first compound 0.003 µM; hits give low values

Some molecules with recorded viability, T/C:
molecule="CCc1c2c(nc3ccc(O)cc13)-c1cc3c(c(=O)n1C2)COC(=O)[C@]3(O)CC + CCn1c(-c2cc(N3CCN(C)CC3)cnc2C(C)OC)c2c3cc(ccc31)-c1csc(n1)CC(NC(=O)C1CC1C)C(=O)N1CCCC(N1)C(=O)OCC(C)(C)C2" measured_endpoint="viability, T/C" result=72.4%
molecule="CC1(C)CCC(Nc2ncc(C(F)(F)F)c(-c3c[nH]c4c(P(C)(C)=O)c(C#N)ccc34)n2)CN1 (centres undefined) + CCn1c(-c2cc(N3CCN(C)CC3)cnc2C(C)OC)c2c3cc(ccc31)-c1csc(n1)CC(NC(=O)C1CC1C)C(=O)N1CCCC(N1)C(=O)OCC(C)(C)C2" measured_endpoint="viability, T/C" result=77.5%
molecule="CCc1c2c(nc3ccc(O)cc13)-c1cc3c(c(=O)n1C2)COC(=O)[C@]3(O)CC + CCn1c(-c2cccnc2C(C)OC)c2c3cc(ccc31)N1CCOC(CC(NC(=O)C(C(C)C)N(C)C(=O)C3(F)CCN(C(=O)C#CC(C)(C)N(C)C)CC3)C(=O)N3CCCC(N3)C(=O)OCC(C)(C)C2)C1" measured_endpoint="viability, T/C" result=68.3%

Shift focus to the following entry.
**Query** Retrieve viability, T/C measured for CC1(C)CCC(Nc2ncc(C(F)(F)F)c(-c3c[nH]c4c(P(C)(C)=O)c(C#N)ccc34)n2)CN1 (centres undefined) + CCn1c(-c2cccnc2C(C)OC)c2c3cc(ccc31)N1CCOC(CC(NC(=O)C(C(C)C)N(C)C(=O)C3(F)CCN(C(=O)C#CC(C)(C)N(C)C)CC3)C(=O)N3CCCC(N3)C(=O)OCC(C)(C)C2)C1 and print it.
**Result** 79%

====

- System: K12877-001-R-J1-PDC complex spheroid viability
- method-description: Anticancer human tumor K12877-001-R-J1-PDC cell line growth inhibition [RAS];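 note: tumour cells co-cultured with HUVEC and mesenchymal stem cells in spheroids; spheroids exposed to agents for one week before readout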
- applied-conditions: second compound 0.1 µM; first compound 0.316 µM; hits give low values
Listed below: viability, T/C values for each entry.
Write the number in % without appending the unit.

compound="CC(=O)OC12COC1CC(O)C1(C)C(=O)C(O)C3=C(C)C(OC(=O)C(O)C(NC(=O)OC(C)(C)C)c4ccccc4)CC(O)(C(OC(=O)c4ccccc4)C21)C3(C)C (configuration not stated) + C#Cc1c(F)ccc2cc(O)cc(-c3ncc4c(N5CC6CCC(C5)N6)nc(OCC56CCCN5CC(F)C6)nc4c3F)c12" measured_endpoint="viability, T/C" quantitative_readout=4.24

**Query** Retrieve viability, T/C measured for CCC(CC)c1cc(NC2CCC(N)C2)n2nccc2n1 (configuration not stated) + C=CC(=O)N1CCN(c2nc(OCC3CCCN3C)nc3c(F)c(-c4nc(N)cc(C)c4C(F)(F)F)c(Cl)cc23)C(C)C1 and print it.
**Result** 83.4

====

- Tested on: K12877-001-R-J1-PDC complex spheroid viability
- method-description: Anticancer human tumor K12877-001-R-J1-PDC cell line growth inhibition [RAS];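 note: tumour cells co-cultured with HUVEC and mesenchymal stem cells in spheroids; spheroids exposed to agents for one week before readout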
- applied-conditions: second compound 0.003 µM; first compound 1 µM; hits give low values
Listed below: viability, T/C values for each entry.
Write the number in % without appending the unit.

Some molecules with recorded viability, T/C:
molecule="CC1(O)CCCC1n1c(=O)c(C(F)F)cc2cnc(NC3CCN(S(C)(=O)=O)CC3)nc21 (centres undefined) + CCn1c(-c2cc(N3CCN(C)CC3)cnc2C(C)OC)c2c3cc(ccc31)-c1csc(n1)CC(NC(=O)C1CC1C)C(=O)N1CCCC(N1)C(=O)OCC(C)(C)C2" measured_endpoint="viability, T/C" output_unit=% quantitative_readout=56.2
molecule="NC1c2ccccc2OC12CCN(c1cnc3c(N4CCCc5ncccc54)n[nH]c3n1)CC2 (centres undefined) + CCn1c(-c2cccnc2C(C)OC)c2c3cc(ccc31)N1CCOC(CC(NC(=O)C(C(C)C)N(C)C(=O)C3(F)CCN(C(=O)C#CC(C)(C)N(C)C)CC3)C(=O)N3CCCC(N3)C(=O)OCC(C)(C)C2)C1" measured_endpoint="viability, T/C" output_unit=% quantitative_readout=45.4
molecule="C=CC(=O)N1CCN(c2nc(OCC3CCCN3C)nc3c(F)c(-c4nc(N)cc(C)c4C(F)(F)F)c(Cl)cc23)C(C)C1 (centres undefined) + CCn1c(-c2cc(N3CCN(C)CC3)cnc2C(C)OC)c2c3cc(ccc31)-c1csc(n1)CC(NC(=O)C1CC1C)C(=O)N1CCCC(N1)C(=O)OCC(C)(C)C2" measured_endpoint="viability, T/C" output_unit=% quantitative_readout=67

Shift focus to the following entry.
**Query** Retrieve viability, T/C measured for CCC(CC)c1cc(NC2CCC(N)C2)n2nccc2n1 (centres undefined) + CCn1c(-c2cccnc2C(C)OC)c2c3cc(ccc31)N1CCOC(CC(NC(=O)C(C(C)C)N(C)C(=O)C3(F)CCN(C(=O)C#CC(C)(C)N(C)C)CC3)C(=O)N3CCCC(N3)C(=O)OCC(C)(C)C2)C1 and print it.
**Result** 51

====

- Test system: K12877-001-R-J1-PDC complex spheroid viability
- method-description: Anticancer human tumor K12877-001-R-J1-PDC cell line growth inhibition [RAS];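 note: tumour cells co-cultured with HUVEC and mesenchymal stem cells in spheroids; spheroids exposed to agents for one week before readout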
- applied-conditions: second compound 0.000949 µM; first compound 3.16 µM; hits give low values
Listed below: viability, T/C values for each entry.
Write the number in % without appending the unit.

Some molecules with recorded viability, T/C:
molecule="NC1c2ccccc2OC12CCN(c1cnc3c(N4CCCc5ncccc54)n[nH]c3n1)CC2 (centres undefined) + CCn1c(-c2cccnc2C(C)OC)c2c3cc(ccc31)N1CCOC(CC(NC(=O)C(C(C)C)N(C)C(=O)C3(F)CCN(C(=O)C#CC(C)(C)N(C)C)CC3)C(=O)N3CCCC(N3)C(=O)OCC(C)(C)C2)C1" output_unit=% quantitative_readout=38.5
molecule="CC1(O)CCCC1n1c(=O)c(C(F)F)cc2cnc(NC3CCN(S(C)(=O)=O)CC3)nc21 (centres undefined) + CCn1c(-c2cccnc2C(C)OC)c2c3cc(ccc31)N1CCOC(CC(NC(=O)C(C(C)C)N(C)C(=O)C3(F)CCN(C(=O)C#CC(C)(C)N(C)C)CC3)C(=O)N3CCCC(N3)C(=O)OCC(C)(C)C2)C1" output_unit=% quantitative_readout=23.8
molecule="NC1c2ccccc2OC12CCN(c1cnc3c(N4CCCc5ncccc54)n[nH]c3n1)CC2 (centres undefined) + CCn1c(-c2cc(N3CCN(C)CC3)cnc2C(C)OC)c2c3cc(ccc31)-c1csc(n1)CC(NC(=O)C1CC1C)C(=O)N1CCCC(N1)C(=O)OCC(C)(C)C2" output_unit=% quantitative_readout=61.3

Shift focus to the following entry.
**Query** Answer briefly: viability, T/C recorded on K12877-001-R-J1-PDC complex spheroid viability for CC(Nc1ccc2c(c1)OCCn1cc(N3C(=O)OCC3C(F)F)nc1-2)C(N)=O (centres undefined) + CCn1c(-c2cc(N3CCN(C)CC3)cnc2C(C)OC)c2c3cc(ccc31)-c1csc(n1)CC(NC(=O)C1CC1C)C(=O)N1CCCC(N1)C(=O)OCC(C)(C)C2
**Result** 62.2

====

- System: K12877-001-R-J1-PDC complex spheroid viability
- method-description: Anticancer human tumor K12877-001-R-J1-PDC cell line growth inhibition [RAS];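 note: tumour cells co-cultured with HUVEC and mesenchymal stem cells in spheroids; spheroids exposed to agents for one week before readout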
- applied-conditions: second compound 0.00316 µM; first compound 10 µM; hits give low values
Listed below: viability, T/C values for each entry.
Write the number in % without appending the unit.

**Query** Retrieve viability, T/C measured for CC1(O)CCCC1n1c(=O)c(C(F)F)cc2cnc(NC3CCN(S(C)(=O)=O)CC3)nc21 (stereo not drawn) + C=CC(=O)N1CCN(c2nc(OCC3CCCN3C)nc3c(F)c(-c4nc(N)cc(C)c4C(F)(F)F)c(Cl)cc23)C(C)C1 and print it.
**Result** 2.13

**Query** Retrieve viability, T/C measured for CC(Nc1ccc2c(c1)OCCn1cc(N3C(=O)OCC3C(F)F)nc1-2)C(N)=O (stereo not drawn) + C=CC(=O)N1CCN(c2nc(OCC3CCCN3C)nc3c(F)c(-c4nc(N)cc(C)c4C(F)(F)F)c(Cl)cc23)C(C)C1 and print it.
**Result** 21.3

**Query** Retrieve viability, T/C measured for C[C@@H](NC(=O)c1ncnc(N)c1Cl)c1ncc(C(=O)Nc2cc(C(F)(F)F)c(Cl)cn2)s1 + C=CC(=O)N1CCN(c2nc(OCC3CCCN3C)nc3c(F)c(-c4nc(N)cc(C)c4C(F)(F)F)c(Cl)cc23)C(C)C1 and print it.
**Result** 99.8
